Where do these numbers come from? They come from paper PMC8185074.

TARGET DESC: HDAC3 (Homo sapiens)
Construct: purchased Reaction Biology Corporation (assay run by the CRO)
Sequence (O15379 whole entry): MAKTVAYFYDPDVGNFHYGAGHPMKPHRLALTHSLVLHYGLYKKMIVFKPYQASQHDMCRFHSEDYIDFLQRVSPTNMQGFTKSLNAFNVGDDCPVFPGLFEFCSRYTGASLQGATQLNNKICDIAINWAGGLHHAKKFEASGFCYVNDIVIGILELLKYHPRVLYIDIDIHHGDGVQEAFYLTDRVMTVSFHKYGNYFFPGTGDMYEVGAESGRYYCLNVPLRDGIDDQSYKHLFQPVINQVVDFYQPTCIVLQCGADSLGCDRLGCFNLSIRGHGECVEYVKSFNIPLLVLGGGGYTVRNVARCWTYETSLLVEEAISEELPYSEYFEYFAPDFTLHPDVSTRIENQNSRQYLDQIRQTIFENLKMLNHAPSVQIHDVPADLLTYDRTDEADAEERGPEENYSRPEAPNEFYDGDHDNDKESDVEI
Sequence (Q9Y618 395-489 partner limits assumed): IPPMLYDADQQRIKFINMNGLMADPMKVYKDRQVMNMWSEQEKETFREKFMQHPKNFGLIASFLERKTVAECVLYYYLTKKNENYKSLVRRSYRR
MEASUREMENT PROTOCOL: HDAC3 inhibition, full IC50 measurement (Reaction Biology; fluorogenic p53 peptide RHKK(Ac)AMC)
Type: biochemical
ASSAY SETUP: Conc. 1.23E-07 M, t2
Peptide text beside a SMILES is read from it.
MEASURED QUANTITY: HDAC3 activity raw data (signal)
Give the figure by itself; no unit, no explanation.

Given item N=C(N)NCCC[C@H]1NC(=O)[C@@H]2CCCN2C(=O)[C@H](CO)NC(=O)[C@@H](Cc2c[nH]cn2)NC(=O)[C@H](CCCCCS)NC(=O)[C@H](CCCCN)NC(=O)[C@H](Cc2ccc(O)cc2)NC(=O)[C@H]2CCCN2C(=O)[C@@H](CCC(N)=O)NC1=O [des3.1.0, SHA-dHis-Ser-Pro-dArg-dGln-dPro-Tyr-Lys] (HELM PEPTIDE1{K.[O=C([C@H](CCCCCS)N[*:1])[*:2]].[dH].S.P.[dR].[dQ].[dP].Y}$PEPTIDE1,PEPTIDE1,1:R1-9:R2$$$V2.0) , the value recorded as its HDAC3 activity raw data (signal) is 849517
